Can you tell me vesicle binding response for the items I'm about to list?
Assay method text: reduced mouse 2C T cell binding to pMHC/ICAM-1 vesicles – MLPCN validation set, flow cytometry, LFA-1/ICAM-1 modulator project, pilot screen (AID 2523);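 note: mean PE anti-B7-1 fluorescence of CD8+ cells relative to row control; 100% = QL9-loaded vesicles with DMSO vehicle in the same plate row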
Reported conditions: 2C mouse CD8+ T cells, at 7 µM, active compounds read low
The source made the active and inactive calls.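 Rule for the calls: active = response below a set limit, under 55% cells CD8-positive and vesicle-bound, and CD8 cells' 90th-percentile brightness under 279; inactive = the rest.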

molecule="O=C(CCC1CCCN(C(=O)c2ccsc2)C1)NCc1ccc(F)c(F)c1 (centres undefined)" readout_name="vesicle binding response" result="183% (inactive)"
molecule="COc1cc(C=NCC2OCCc3ccccc32)cc(OC)c1 (centres undefined)" readout_name="vesicle binding response" result="136% (inactive)"

State recorded vesicle binding response for all listed molecules.
1. COc1ccc(-n2cc(CNCc3cccnc3)c(-c3cccc(F)c3)n2)cc1
2. CC(C)NS(=O)(=O)c1ccc(OCC(=O)Nc2cccc(F)c2)cc1

Reply:
["314% (inactive)", "143% (inactive)"]

* * *

Assay method text: TOR pathway GLN3 branch reporter MEP2-GFP changes – S. cerevisiae, multiplex flow cytometry, primary screen (AID 1867);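 note: median GFP channel fluorescence of barcode-gated MEP2-GFP cells measured by flow cytometry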
Reported conditions: S. cerevisiae MEP2-GFP strain, 3 h, at 10 µM, active compounds read high, 100% means same as DMSO wells
Inconclusive results are not listed.
What GFP response vs DMSO was measured for each of the following?
Give bare numbers, in %.

Please report GFP response vs DMSO for every entry that follows.
1. CC(C)Oc1cccc(C(=O)N2CCCC2)c1
2. Cc1c(OCC(F)(F)F)ccnc1CS(=O)c1nc2ccccc2[nH]1 (stereo unspecified)
3. CC(C)=CCC/C(C)=C/CC/C(C)=C/CC/C(C)=C/CC1=C(C)C(=O)c2ccccc2C1=O
4. COc1ccc2cc([C@H](C)C(=O)O)ccc2c1
5. COc1ccc(C2NC(=O)c3ccccc3O2)c(OC)c1OC (stereo unspecified)
6. Cc1ccc(S(=O)(=O)n2ccnc2)cc1C

Reply:
1: 106; 2: 101; 3: 105; 4: 93; 5: 104; 6: 112

* * *

Target under test: ATP-binding cassette sub-family B member 6 (Homo sapiens)
Assay method text: blockers of ABCB6-driven porphyrin uptake – K562-ABCB6 cells, flow cytometry, validation set, pilot screen (AID 588550);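 note: 0% = DMSO wells and 100% = benzethonium chloride 70 µM positive control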
Reported conditions: K562-ABCB6 porphyrin accumulation, 1 h, at 10 µM, active compounds read high
Readout name: inhibition (%)
One number for each entry, in %.

compound=CC(=O)OCC#CCSc1nc2ccccc2n1C target_under_test="ATP-binding cassette sub-family B member 6 (Homo sapiens)" result_unit=% quantitative_readout=12
compound="CCN1C(=O)C(CC(=O)Nc2ccc(F)cc2)N(Cc2ccco2)C1=S (stereo not drawn)" target_under_test="ATP-binding cassette sub-family B member 6 (Homo sapiens)" result_unit=% quantitative_readout=7

Let us move to another entry and its inhibition.
Ask: For "COc1cc(C)nc(-n2nc(C)cc2OC)n1" , what is its reported inhibition?
Reply: 2

* * *

Please respond with reported GFP response, % of DMSO for every item in the list.
Assay method text: yeast AGP1-GFP level changes, GLN3 branch – cell-based, multiplex flow cytometry, S. cerevisiae, primary screen (AID 1887);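 note: AGP1-GFP fusion strain of S. cerevisiae within a five-strain barcoded multiplex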
Reported conditions: 3 h, at 10 µM, active compounds read high
Records with an inconclusive call do not appear.
Answers are plain numbers, in %.

Completed entries (count: 4):
compound=CCO/C([O-])=N/c1c[n+](N2CCOCC2)no1 result_unit=% quantitative_readout=106
compound=O=S(=O)(CCc1nc2ccccc2[nH]1)c1ccc(Cl)cc1 result_unit=% quantitative_readout=99.7
compound=O=C(O)CCC(=O)c1ccc(-c2ccccc2)cc1 result_unit=% quantitative_readout=108
compound=Cc1ccc(C2=NOC(=O)/C2=C\C=C\c2ccccc2)cc1 result_unit=% quantitative_readout=73.5

For every record below, what is its GFP response, % of DMSO?
1. CCn1c(SCC(=O)c2ccccc2)nc2ccccc2c1=O
2. CC1(C)c2ccccc2N2CC(=O)NC21/C=C/c1ccco1 (configuration not stated)
3. CSCCC1NC2(C(=O)Nc3ccc(Cl)cc32)[C@@H]2C(=O)N(C3CCCC3)C(=O)[C@H]12 (some centres not stated)
4. O=C(NCCO)c1ccc(Cl)c(Cl)c1
5. CC(C)=CCCC1=CCC2C(=O)NNC(=O)C2C1 (configuration not stated)
6. CC1(C#CC[N+]2(C)CCCCC2)CCC2C(O1)c1ccccc1OC2(C)C (configuration not stated)
7. COc1ccccc1/C=C/C(=O)OCCN1CCOCC1
8. Cc1ccc2c(c1)C(O)(C1COC(C)(C)CC1=O)C(=O)N2C (configuration not stated)

Reply:
[104, 96.2, 98.9, 107, 99.5, 106, 103, 98.8]
